The origin of these recorded values is patent US7211424B1.

tgt: BTMD-SKI-1 (Homo sapiens, UniProt Q14703)
Sequence (Q14703 187-997 limits assumed): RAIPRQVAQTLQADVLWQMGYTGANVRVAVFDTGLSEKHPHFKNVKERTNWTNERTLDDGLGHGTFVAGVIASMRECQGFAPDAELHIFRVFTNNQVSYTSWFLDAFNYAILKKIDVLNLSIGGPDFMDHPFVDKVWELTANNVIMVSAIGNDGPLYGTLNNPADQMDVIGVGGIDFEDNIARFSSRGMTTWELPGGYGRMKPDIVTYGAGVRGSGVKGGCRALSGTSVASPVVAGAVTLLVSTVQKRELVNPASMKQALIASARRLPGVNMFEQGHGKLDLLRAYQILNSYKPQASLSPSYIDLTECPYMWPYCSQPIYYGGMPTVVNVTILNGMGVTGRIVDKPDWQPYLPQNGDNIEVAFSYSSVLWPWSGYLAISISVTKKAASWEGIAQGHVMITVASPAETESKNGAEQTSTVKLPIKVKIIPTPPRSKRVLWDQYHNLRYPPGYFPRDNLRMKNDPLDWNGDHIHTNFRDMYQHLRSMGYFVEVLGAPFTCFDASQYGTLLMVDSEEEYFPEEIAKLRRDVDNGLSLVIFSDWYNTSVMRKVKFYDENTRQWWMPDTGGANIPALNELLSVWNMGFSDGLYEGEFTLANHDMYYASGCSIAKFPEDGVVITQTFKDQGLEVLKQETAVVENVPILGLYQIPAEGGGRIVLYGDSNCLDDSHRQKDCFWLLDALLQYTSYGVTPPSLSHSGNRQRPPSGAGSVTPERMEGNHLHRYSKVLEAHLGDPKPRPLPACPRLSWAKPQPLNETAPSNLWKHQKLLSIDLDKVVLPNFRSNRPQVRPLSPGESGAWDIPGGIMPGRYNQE
Sequence (Q14703 17-137 partner limits assumed): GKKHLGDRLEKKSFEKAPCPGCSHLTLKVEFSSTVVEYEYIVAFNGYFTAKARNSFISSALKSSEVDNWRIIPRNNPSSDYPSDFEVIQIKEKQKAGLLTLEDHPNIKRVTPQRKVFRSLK
assay summary: biochemical
Format: biochemical
observable: Hydrolysis of SREBP-2 peptide (% of control)

Sample answers from the record:
O=C(O)CN(CCOCCOCCN(CC(=O)O)CC(=O)O)CC(=O)O    15 % of control
O=S(=O)([O-])[O-].[Zn+2]    0 % of control
[Cl-].[Cl-].[Mg+2]    100 % of control
O=S(=O)([O-])[O-].[Ni+2]    93 % of control
O=C(O)CN(CCN(CC(=O)O)CC(=O)O)CC(=O)O    0 % of control

Now, please, on to the next molecule.
According to the records, this molecule `[Cl-].[Cl-].[Co+2]` displays Hydrolysis of SREBP-2 peptide (% of control) of 100 % of control
